Listed below: composite z-score values for each entry.
Experiment: compound binding in COS7 lysate, probe aLAP1, primary screen, cell lysate, small-molecule microarray (AID 1124);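 further: lysate comes from COS7 cells expressing LAP1 and is applied at 0.3 µg/mL; score merges spot fluorescence near 667 nm with signal-to-noise over triplicate slides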
Details: probe aLAP1, fluorescence, higher = more signal

# Compound, composite z-score
records = [
    ("COc1ccc([Si](C)(C)[C@H]2[C@H](CC(=O)N3Cc4ccccc4C[C@H]3CO)O[C@@]3(C(=O)N(Cc4cccc(N5C(=O)COc6ccccc65)c4)c4ccccc43)[C@@H]2C)cc1", -0.245),
    ("O=C1c2ccccc2[C@@]2(Cc3ccccc3N(CC(F)(F)F)C2=O)[C@H](c2ccc(CO)cc2)N1Cc1ccccc1C(F)(F)F", 0.134),
    ("C=CCN1C(=O)[C@]2(O[C@H](CCn3cc([C@H](O)c4ccccc4)nn3)[C@@H]([Si](C)(C)c3ccc(OC)cc3)[C@@H]2C)c2cc(N3CCOC3=O)ccc21", 0.0004),
    ("CCCCCN1CC=CC23O[C@@H]4/C=C\\CCC(C)OC(=O)C4[C@H]2C(=O)N(CCCO)[C@@H]3C1=O (stereo partly specified)", 1.62),
    ("CCN(CC)c1ccc(N2CC=CC34O[C@@H]5C=CCOC(=O)[C@@H]5[C@H]3C(=O)N(C(CO)C(C)C)[C@@H]4C2=O)cc1 (stereo partly specified)", 0.23),
    ("CO[C@H]1O[C@H](CO)[C@@H](OC(=O)Nc2ccccc2)[C@H](OC(=O)Nc2ccccc2-c2ccccc2)[C@@H]1OC(=O)Nc1ccccc1-c1ccccc1", 0.381),
]

---

Molecular target: Pro-neuregulin-1, membrane-bound isoform (Homo sapiens)
Assay: NRG1 binders on small-molecule microarrays, primary screen, psychiatric disease protein project, biochemical, small-molecule microarray, fluorescence 635/667 (AID 1075);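 further: score combines 667 nm spot fluorescence with signal to noise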
Details: NRG1 binding, 635 nm fluorescence, higher = more signal

# Smiles Entry, composite z-score
records = [
    ("CO[C@H]1O[C@H](CO)[C@@H](OC(=O)Nc2ccccc2)[C@H](OC(=O)Nc2ccccc2-c2ccccc2)[C@H]1OC(=O)Nc1ccccc1-c1ccccc1", 1.31),
    ("COCCCNC(=O)[C@@]1(Cc2ccccc2CN=[N+]=[N-])COC(c2ccc(OCCCO)cc2)=N1", 1.84),
    ("COC(=O)C(CC#Cc1ccc2c(c1)[C@]1(C(=O)N2)[C@H](C(=O)O)[C@H]2C(=O)O[C@H](c3ccccc3)[C@H](c3ccccc3)N2[C@@H]1c1ccc(OCCO)cc1)C(=O)OC", 2.11),
]

---

System: Neuregulin-1 EGF-like domain
Experiment: binders of neuregulin-1 EGF-like domain, primary screen, biochemical, small-molecule microarray, 635 nm fluorescence (AID 1081);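 further: binding of the protein to compounds printed on small-molecule microarray slides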
Conditions: small-molecule microarray binding, higher = more signal

# Compound, Target Under Test, composite z-score
measured = [
    ("COc1ccc(C(=O)Nc2cccc(CN3C(=O)[C@@]4(O[C@@H](CCO)[C@H]([Si](C)(C)c5ccc(OC)cc5)[C@H]4C)c4ccccc43)c2)cc1", "Neuregulin-1 EGF-like domain", 0.984),
    ("COc1ccc([Si](C)(C)[C@H]2[C@H](CC(=O)N(CCO)Cc3ccccc3)O[C@@]3(C(=O)N(Cc4ccc(N5CCOC5=O)cc4)c4ccccc43)[C@@H]2C)cc1", "Neuregulin-1 EGF-like domain", 1.01),
    ("C=CC[C@@H](OC(=O)Nc1ccc(SC)cc1)c1ccc(OCCO)cc1", "Neuregulin-1 EGF-like domain", 0.801),
    ("COC(=O)C1=CC(CCCO)=CC(C2CC2)N(Cc2cc3c(cc2Br)OCO3)C=C1C(=O)OC (centres undefined)", "Neuregulin-1 EGF-like domain", 1.3),
    ("NCCCCCNC(=O)[C@H]1C[C@H]2C(=O)NCC(=O)N2[C@H]1c1ccc(O)cc1", "Neuregulin-1 EGF-like domain", 1.22),
    ("CCCCCN1CC=CC23O[C@@H]4/C=C\\CCC(C)OC(=O)C4[C@H]2C(=O)N(CCCO)[C@@H]3C1=O (some centres undefined)", "Neuregulin-1 EGF-like domain", 1.15),
    ("C=CCN1C(=O)[C@@]2(O[C@@H](CCn3cc(CCO)nn3)[C@H]([Si](C)(C)c3ccc(OC)cc3)[C@H]2C)c2cc(NC(=O)c3ccc(OC)cc3)ccc21", "Neuregulin-1 EGF-like domain", 0.672),
    ("CCOC(=O)C[C@H]1[C@H](OC(=O)c2ccc(-c3ccccc3)cc2)[C@@H](NC(=O)C2CCCCC2)c2cc(OCCCO)ccc2N1C(=O)c1ccc2ccccc2n1", "Neuregulin-1 EGF-like domain", 0.741),
    ("O=C(NCc1ccccc1)[C@@H]1c2ccccc2C(=O)N(Cc2ccccc2Cl)[C@H]1c1ccc(CO)cc1", "Neuregulin-1 EGF-like domain", 1.25),
    ("C=C(COC)C(=O)CC[C@H](OC(=O)c1cccnc1)c1cccc(OCCO)c1", "Neuregulin-1 EGF-like domain", 0.0423),
    ("CCCNC(=O)[C@@]1(Sc2ccc(C)cc2)CC(=O)N(Cc2cc(C(F)(F)F)cc(C(F)(F)F)c2)[C@@H]1c1ccc(CO)cc1I", "Neuregulin-1 EGF-like domain", 0.242),
    ("C=CC[C@]1(C(=O)N2CCCCC2)COC(c2ccc(OCCCO)cc2)=N1", "Neuregulin-1 EGF-like domain", 0.796),
    ("CCOC(=O)C[C@H]1[C@H](OC(=O)Cc2ccc3c(c2)OCO3)[C@@H](NC(=O)c2ccc3ccccc3c2)c2cc(OCCCO)ccc2N1C(=O)c1ccc2ccccc2n1", "Neuregulin-1 EGF-like domain", 0.8),
    ("C=CCNC(=O)[C@@H]1[C@H]2C(=O)O[C@H](c3ccccc3)[C@H](c3ccccc3)N2[C@H](c2ccc(O)cc2)[C@@]12C(=O)N(C(=O)OCCOC)c1ccc(C#Cc3ccc(OC)cc3)cc12", "Neuregulin-1 EGF-like domain", 1.16),
    ("COc1ccc(C#Cc2ccc3c(c2)[C@]2(C(=O)N3)[C@H](c3ccc(O)cc3)N3[C@H](c4ccccc4)[C@H](c4ccccc4)OC(=O)[C@H]3[C@@H]2C(N)=O)cc1", "Neuregulin-1 EGF-like domain", 0.785),
    ("CCCCC(=C=CC[C@@H](O)c1ccc(OCCO)cc1)C[C@@H](O)c1cc(Cl)cc(Cl)c1O", "Neuregulin-1 EGF-like domain", 0.597),
    ("COc1ccc([Si](C)(C)[C@@H]2[C@@H](CC(=O)N3CCC[C@H]3CO)O[C@]3(C(=O)N(Cc4ccc(I)cc4)c4ccccc43)[C@H]2C)cc1", "Neuregulin-1 EGF-like domain", 1.22),
    ("O=C(O)[C@H]1C[C@H]2C(=O)NCC(=O)N2[C@H]1c1cccc(OCCO)c1", "Neuregulin-1 EGF-like domain", 0.986),
    ("C=C1C=C(Br)C2(OCCCO2)[C@H]2OC12 (some centres undefined)", "Neuregulin-1 EGF-like domain", -0.221),
    ("O=c1n(-c2ccccc2)c(=O)n2n1CC(COc1ccccc1)=C1[C@@H](CCc3ccccc3)OB(O)C[C@@H]12", "Neuregulin-1 EGF-like domain", 0.706),
    ("COCCCN1C(=O)[C@@]2(Cc3ccccc31)c1ccccc1C(=O)N(Cc1ccccc1Cl)[C@H]2c1ccc(CO)cc1", "Neuregulin-1 EGF-like domain", -0.983),
    ("O=C(N1CCCCC1)[C@@]1(Cc2ccccc2)N=C(c2ccc(OCCCO)cc2)O[C@H]1c1ccccc1", "Neuregulin-1 EGF-like domain", 1.02),
    ("CC(C)(C)OC(=O)CC[C@@]12N=C(c3ccc(OCCCO)cc3)O[C@@H]1c1ccccc1CN(Cc1ccccc1)C2=O", "Neuregulin-1 EGF-like domain", 1.14),
    ("O=C1N(CCS(=O)(=O)c2ccccc2)Cc2ccccc2[C@@H]2OC(c3ccc(OCCCO)cc3)=N[C@]12Cc1ccccc1", "Neuregulin-1 EGF-like domain", 1.39),
    ("NC(=O)NCC#Cc1ccc2c(c1)[C@]1(C(=O)N2)[C@H](c2ccc(OCCO)cc2)N2[C@H](c3ccccc3)[C@H](c3ccccc3)OC(=O)[C@H]2[C@@H]1C(=O)Nc1nc2ccccc2s1", "Neuregulin-1 EGF-like domain", -0.748),
    ("C=CCC(OC(C)=O)[C@@H]1[C@@H](N(Cc2cccc3ccccc23)C(=O)Cc2ccc(OC)cc2)c2cc(OCCCO)ccc2N1C(=O)Cc1ccc(OC)cc1 (some centres undefined)", "Neuregulin-1 EGF-like domain", -0.832),
    ("C=C(COC)/C(=C/C[C@H](OC(C)=O)c1cccc(OCCO)c1)c1cc(C(=O)OC)ccc1OC", "Neuregulin-1 EGF-like domain", 0.691),
    ("COCCOC(=O)N1C(=O)[C@@]2(c3cc(C#CCNC(N)=O)ccc31)[C@H](c1ccccc1OCCO)N1[C@H](c3ccccc3)[C@H](c3ccccc3)OC(=O)[C@H]1[C@@H]2C(=O)Nc1nc2ccccc2s1", "Neuregulin-1 EGF-like domain", 0.627),
    ("CC(C)(C)OC(=O)CC[C@@]12N=C(c3ccc(OCCCO)cc3)O[C@@H]1c1ccccc1N(Cc1ccccc1)C2=O", "Neuregulin-1 EGF-like domain", 1.21),
]
